test: Log P by HPLC on reversed phase columns (EEC directive 79/831 Annex V.A8); format: physicochemical; details: Table 2, epoxides of formula (XII); method [a]: LC-UV, acidic range, 0.1% formic acid in water and acetonitrile
Attribute: LogP
PROPERTY_NAME: LogP

Fc1ccc(C2(Cc3ccnc(Cl)c3F)CO2)cc1 (racemic) [XII-50]    3.11^[a]
Fc1ccc(Oc2ccc(C3(Cc4c(Cl)cncc4Cl)CO3)cc2)c(F)c1 (racemic) [XII-52]    4.70^[a]
Clc1cnccc1CC1(c2c(Cl)cccc2Cl)CO1 (racemic) [XII-62]    3.02^[a]
Cc1cc(C)c(C2(Cc3ccncc3Cl)CO2)c(C)c1 (racemic) [XII-60]    4.15^[a]
Clc1cnccc1CC1(c2ccc(Oc3ccccc3)cc2)CO1 (stereo not drawn) [XII-32]    3.80^[a]
Clc1cncc(Cl)c1CC1(c2ccccc2)CO1 (racemic) [XII-58]    3.53^[a]
Fc1ccc(C2(Cc3ccnc(Cl)c3)CO2)c(F)c1 (stereo not drawn) [XII-11]    2.93^[a]
Fc1ccc(C2(Cc3c(Cl)cncc3Cl)CO2)c(F)c1 (racemic) [XII-55]    3.68^[a]
Fc1cc(CC2(c3ccc(Cl)cc3Cl)CO2)c(Cl)cn1 (racemic) [XII-36]    4.45^[a]
Fc1cc(CC2(c3ccccc3Cl)CO2)c(Cl)cn1 (racemic) [XII-38]    3.80^[a]
Clc1cnccc1CC1(c2ccc(-c3ccccc3)cc2)CO1 (stereo not drawn) [XII-28]    3.85^[a]
Clc1ccc(C2(Cc3ccncc3Cl)CO2)cc1 (stereo not drawn) [XII-30]    3.15^[a]
Clc1ccc(C2(Cc3ccncc3Cl)CO2)c(Cl)c1 (stereo not drawn) [XII-31]    3.06^[a]
Clc1ccc(C2(Cc3c(Cl)cncc3Cl)CO2)cc1 (racemic) [XII-57]    4.10^[a]
Fc1ccc(C2(Cc3cc(F)ncc3Cl)CO2)cc1 (racemic) [XII-39]    3.37^[a]
Fc1cccc(F)c1C1(Cc2ccncc2Cl)CO1 (stereo not drawn) [XII-66]    2.50^[a]
Clc1ccc(C2(Cc3ccnc(Cl)c3)CO2)c(Cl)c1 (stereo not drawn) [XII-10]    3.85^[a]
Fc1cnc(Cl)cc1CC1(c2ccc(Oc3ccccc3)cc2)CO1 (stereo not drawn) [XII-18]    4.23^[a]
Clc1ccc(C2(Cc3c(Cl)cncc3Cl)CO2)c(Cl)c1 (racemic) [XII-54]    4.76^[a]
Fc1ccc(Oc2ccc(C3(Cc4ccncc4Cl)CO3)cc2)c(F)c1 (stereo not drawn) [XII-33]    3.80^[a]
Fc1ccc(Oc2ccc(C3(Cc4ccnc(Cl)c4F)CO3)cc2)c(F)c1 (racemic) [XII-44]    4.20^[a]
Clc1cc(CC2(c3ccc(-c4ccccc4)cc3)CO2)ccn1 (stereo not drawn) [XII-13]    3.89^[a]
Fc1c(CC2(c3ccc(Cl)cc3)CO2)ccnc1Cl (racemic) [XII-43]    3.58^[a]
Fc1cnc(Cl)cc1CC1(c2ccc(Cl)cc2Cl)CO1 (stereo not drawn) [XII-19]    4.17^[a]
Fc1ccc(C2(Cc3ccnc(Cl)c3F)CO2)c(F)c1 (racemic) [XII-47]    3.26^[a]
Fc1c(CC2(c3ccccc3Cl)CO2)ccnc1Cl (racemic) [XII-49]    3.47^[a]
CC(C)(C)c1noc(-c2ccc(C3(Cc4ccncc4Cl)CO3)cc2)n1 (stereo not drawn) [XII-65]    4.25^[a]
